The measured values listed here are drawn from patent US10647708B2.

- SYSTEM_NAME: Full-length PRMT5 enzyme co-expressed with MEP50 (Homo sapiens (Human), UniProt O14744)
- Sequence (O14744 whole entry): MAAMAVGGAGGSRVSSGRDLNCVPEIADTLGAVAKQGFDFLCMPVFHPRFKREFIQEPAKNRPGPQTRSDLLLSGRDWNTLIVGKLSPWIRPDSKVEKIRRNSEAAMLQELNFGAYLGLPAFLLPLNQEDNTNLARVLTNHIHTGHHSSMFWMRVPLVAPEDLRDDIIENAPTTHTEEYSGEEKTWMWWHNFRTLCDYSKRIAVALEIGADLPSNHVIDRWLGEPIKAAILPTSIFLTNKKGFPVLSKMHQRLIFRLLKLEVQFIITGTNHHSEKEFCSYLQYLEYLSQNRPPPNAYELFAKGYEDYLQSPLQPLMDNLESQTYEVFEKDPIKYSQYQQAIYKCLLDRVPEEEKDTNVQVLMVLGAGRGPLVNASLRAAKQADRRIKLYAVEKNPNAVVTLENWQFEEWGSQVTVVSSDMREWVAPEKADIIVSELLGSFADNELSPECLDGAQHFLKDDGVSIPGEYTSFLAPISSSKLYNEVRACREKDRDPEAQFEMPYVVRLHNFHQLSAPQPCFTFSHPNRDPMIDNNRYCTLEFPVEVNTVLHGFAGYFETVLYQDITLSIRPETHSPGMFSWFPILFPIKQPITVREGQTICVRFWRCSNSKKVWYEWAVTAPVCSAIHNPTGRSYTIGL
- Sequence (Q9BQA1 whole entry partner): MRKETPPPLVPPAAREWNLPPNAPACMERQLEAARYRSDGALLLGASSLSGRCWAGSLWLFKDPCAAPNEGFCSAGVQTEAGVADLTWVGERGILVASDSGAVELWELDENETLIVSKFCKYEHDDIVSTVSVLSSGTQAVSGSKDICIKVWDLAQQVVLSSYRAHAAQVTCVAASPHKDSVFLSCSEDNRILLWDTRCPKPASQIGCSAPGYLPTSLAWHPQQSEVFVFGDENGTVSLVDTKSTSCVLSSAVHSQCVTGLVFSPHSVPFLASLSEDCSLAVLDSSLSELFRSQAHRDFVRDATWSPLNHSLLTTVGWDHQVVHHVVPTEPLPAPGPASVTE
- METHOD: PRMT5 Biochemical Assay
- TEST_CONTEXT: 200 nM peptide substrate, 1 μM S-Adenosyl methionine, 4 hours at 37° C., Transcreener EPIGEN fluorescence polarisation
READOUT: IC50

compound="O=C(NCCC(O)CN1CCc2ccccc2C1)c1ccc(Cl)cc1 (stereo not shown)" result="359 nM"

====

- SYSTEM_NAME: Full-length PRMT5 enzyme co-expressed with MEP50 (Homo sapiens (Human))
- METHOD: Revised PRMT5 Biochemical Assay
- TEST_CONTEXT: 1 μM peptide substrate, 1 μM S-Adenosyl methionine, 4 hours at 37 degree Celsius, Transcreener EPIGEN fluorescence polarisation
// reported log10 of IC50 for each item listed
READOUT: log10 of IC50 (log10 of the value in µM)

molecule="Cn1ccc(C(=O)NCCC(O)CN2CCc3ccccc3C2)cc1=O (centres unmarked)" quantitative_result=1.03
molecule="O=C(NCCC(O)CN1CCc2ccccc2C1)c1ccnn1-c1cccnc1 (centres unmarked)" quantitative_result=0.46
molecule="O=C(NCCC(O)CN1CCc2ccccc2C1)c1cncc(Cl)n1 (centres unmarked)" quantitative_result=2.03
molecule="O=C(NCCC(O)CN1CCc2ccccc2C1)c1ccc(-c2ccccc2)cc1 (centres unmarked)" quantitative_result=-0.11
molecule="O=C(NCCC(O)CN1CCc2ccccc2C1)c1cccc(-c2ccccc2)c1 (centres unmarked)" quantitative_result=0.72
molecule="O=C(NCCC(O)CN1CCc2ccccc2C1)c1cnn(-c2ccccn2)c1 (centres unmarked)" quantitative_result=1.09
molecule="COc1ccc(-c2cc(C(=O)NCCC(O)CN3CCc4ccccc4C3)on2)cc1 (centres unmarked)" quantitative_result=0.49
molecule="O=C(NCCC(O)CN1CCc2ccccc2C1)c1ccc(S(=O)(=O)C(F)(F)F)cc1 (centres unmarked)" quantitative_result=0.05
molecule="Cc1c(C(=O)NCCC(O)CN2CCc3ccccc3C2)cnn1-c1ccncc1 (centres unmarked)" quantitative_result=0.85
molecule="O=C(NCCC(O)CN1CCc2ccccc2C1)c1ccc(S(F)(F)(F)(F)F)cc1 (centres unmarked)" quantitative_result=-0.67
molecule="CN(C)C(=O)c1ccc(C(=O)NCCC(O)CN2CCc3ccccc3C2)cc1 (centres unmarked)" quantitative_result=0.55
molecule="O=C(NCCC(O)CN1CCc2ccccc2C1)c1ccc(N2CCCCC2=O)cc1 (centres unmarked)" quantitative_result=1.12
molecule="Cc1nnc(-c2cccc(C(=O)NCCC(O)CN3CCc4ccccc4C3)c2)o1 (centres unmarked)" quantitative_result=0.09
molecule="CS(=O)(=O)c1ccccc1OCC(=O)NCCC(O)CN1CCc2ccccc2C1 (centres unmarked)" quantitative_result=1.71
molecule="O=C(NCCC(O)CN1CCc2ccccc2C1)c1coc(-c2ccccc2)n1 (centres unmarked)" quantitative_result=0.08
molecule="O=C(NCCC(O)CN1CCc2ccccc2C1)c1ccnc(Cl)c1 (centres unmarked)" quantitative_result=1.14
molecule="O=C(NCCC(O)CN1CCc2ccccc2C1)c1cccc(C(=O)N2CCOCC2)c1 (centres unmarked)" quantitative_result=0.72
